species: Homo sapiens; assay: Binding affinity to human CCL13 at 100 uM by glycan microarray analysis
Measured Activity, listed per entry.
Report the figure in % without appending any unit label.

NCCOCCO[C@@H]1O[C@@H](C(=O)O)[C@@H](O[C@@H]2O[C@@H](C(=O)O)[C@@H](O[C@@H]3O[C@@H](C(=O)O)[C@@H](O)[C@H](O)[C@H]3O)[C@H](O)[C@H]2O)[C@H](O)[C@H]1O    69

input: Suppose we examine the compound `NCCOCCO[C@@H]1O[C@@H](C(=O)O)[C@@H](O[C@@H]2O[C@@H](C(=O)O)[C@@H](OS(=O)(=O)O)[C@H](O)[C@H]2O)[C@H](O)[C@H]1O` ; what Activity value has been reported?
output: 94

input: Let us now turn to `NCCOCCO[C@@H]1O[C@@H](C(=O)O)[C@@H](O[C@@H]2O[C@@H](C(=O)O)[C@@H](O[C@@H]3O[C@@H](C(=O)O)[C@@H](O[C@@H]4O[C@@H](C(=O)O)[C@@H](O)[C@H](O)[C@H]4O)[C@H](O)[C@H]3O)[C@H](O)[C@H]2O)[C@H](O)[C@H]1O`
output: 67

input: Let us now turn to `NCCOCCO[C@@H]1O[C@@H](C(=O)O)[C@@H](O[C@@H]2O[C@@H](C(=O)O)[C@@H](O[C@@H]3O[C@@H](C(=O)O)[C@@H](OS(=O)(=O)O)[C@H](O)[C@H]3O)[C@H](O)[C@H]2O)[C@H](O)[C@H]1O`
output: 86

input: Let us now turn to `NCCOCCO[C@@H]1O[C@@H](C(=O)O)[C@@H](OS(=O)(=O)O)[C@H](O)[C@H]1O`
output: 81

input: Let us now turn to `NCCOCCO[C@@H]1O[C@@H](C(=O)O)[C@@H](O[C@@H]2O[C@@H](C(=O)O)[C@@H](O[C@@H]3O[C@@H](C(=O)O)[C@@H](O[C@@H]4O[C@@H](C(=O)O)[C@@H](OS(=O)(=O)O)[C@H](O)[C@H]4OS(=O)(=O)O)[C@H](O)[C@H]3OS(=O)(=O)O)[C@H](O)[C@H]2OS(=O)(=O)O)[C@H](O)[C@H]1OS(=O)(=O)O`
output: 70

input: Let us now turn to `NCCOCCO[C@@H]1O[C@@H](C(=O)O)[C@@H](O)[C@H](O)[C@H]1O`
output: 74

input: Let us now turn to `NCCOCCO[C@@H]1O[C@@H](C(=O)O)[C@@H](OS(=O)(=O)O)[C@H](O)[C@H]1OS(=O)(=O)O`
output: 53
